biological target: HCV NS3 protein (Hepatitis C virus) (UniProt P27958); assay: pulldown; settings: magnetic bead pulldown with q-PCR; BD buffer, room temperature
Sequence (P27958 1027-1657): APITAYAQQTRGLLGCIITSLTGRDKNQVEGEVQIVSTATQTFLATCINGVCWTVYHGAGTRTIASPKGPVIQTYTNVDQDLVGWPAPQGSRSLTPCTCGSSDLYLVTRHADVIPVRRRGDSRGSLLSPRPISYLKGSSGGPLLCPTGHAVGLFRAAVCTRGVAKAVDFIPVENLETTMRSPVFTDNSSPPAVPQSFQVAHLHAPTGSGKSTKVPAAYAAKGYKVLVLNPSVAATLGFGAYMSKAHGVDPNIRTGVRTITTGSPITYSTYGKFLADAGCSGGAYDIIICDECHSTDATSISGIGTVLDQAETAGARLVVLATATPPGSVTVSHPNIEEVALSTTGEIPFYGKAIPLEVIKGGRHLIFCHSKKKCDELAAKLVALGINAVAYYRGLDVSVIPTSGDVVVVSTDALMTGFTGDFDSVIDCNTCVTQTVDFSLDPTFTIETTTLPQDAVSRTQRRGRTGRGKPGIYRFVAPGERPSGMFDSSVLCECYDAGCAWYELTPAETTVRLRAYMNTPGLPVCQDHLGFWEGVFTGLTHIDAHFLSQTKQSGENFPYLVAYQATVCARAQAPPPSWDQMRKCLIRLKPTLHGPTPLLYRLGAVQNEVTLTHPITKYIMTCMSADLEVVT
Metric name: Kd (nM)
// return numeric value only (unit: nM, not printed)

*Q* Can you look up the measured Kd of AGCAGCACAGAGGTCCCCATGTCCACCTTTCTGTGGCGTGCTACCGTGAA [K3-1] for me?
*A* 15.9

*Q* Can you look up the measured Kd of AGCAGCACAGAGGTCCTGCATCACGAAGCCTGGCAGCGTGCTACCGTGAA [MP-1] for me?
*A* 23.3

---

biological target: Hepatitis B surface antigen (HBsAg) (Hepatitis B virus) (UniProt P03138); test: pulldown; details: magnetic bead pulldown with q-PCR; BD buffer, room temperature
Metric name: pKd
Bear in mind: pKd is minus log10 of a mol/L concentration; give just that figure.

*Q* Could you share what pKd was measured for AGCAGCACAGAGGTCCCAACCGGAATCTGCACCTCGCGTGCTACCGTGAA [K2-4] , tested on Hepatitis B surface antigen (HBsAg) (Hepatitis B virus) (UniProt P03138)?
*A* 7.50

*Q* Could you share what pKd was measured for AGCAGCACAGAGGTCCTGCATCACGAAGCCTGGCAGCGTGCTACCGTGAA [MP-1] , tested on Hepatitis B surface antigen (HBsAg) (Hepatitis B virus) (UniProt P03138)?
*A* 7.55

Taken from patent US20180095078.
